Test system: T. brucei
Assay: Growth inhibition assay of T. brucei cell cultures (Alamar Blue, 48 h)
Format: cell-based
Conditions: Trypanosoma brucei; read-out: B) T. brucei EC50
Collected EC50 values appear next to each entry.
Reply numerically in µM, unit not repeated.

[[record]]
molecule = "COc1c(Cl)cc(Cl)cc1CN[C@H]1CCCN(c2nc3nc(Cl)ccc3[nH]2)C1"
assay_result = 0.357

[[record]]
molecule = "Clc1ccc(CCNCc2nc3nc(Cl)ccc3[nH]2)c(Cl)c1"
assay_result = 1.55

[[record]]
molecule = "CC(Cc1nc2ccccc2[nH]1)NCc1cc(Cl)cc(Cl)c1 (stereo not drawn)"
assay_result = 8.9

[[record]]
molecule = "Clc1cc(Cl)cc(CCN2CCCC(c3nc4nc(Cl)ccc4[nH]3)C2)c1 (stereo not drawn)"
assay_result = 3.76


// EC50 lookup, molecule = O=C(Cc1cc(Cl)cc(Cl)c1)N1CCCC(c2nc3cc(F)ccc3[nH]2)C1 (stereo not drawn) , result: 3.26

* * *

Collected IC50 values appear next to each entry.
Biological target: MetRS (S. aureus) (Staphylococcus aureus, UniProt Q5HII6)
Sequence (Q5HII6 whole entry): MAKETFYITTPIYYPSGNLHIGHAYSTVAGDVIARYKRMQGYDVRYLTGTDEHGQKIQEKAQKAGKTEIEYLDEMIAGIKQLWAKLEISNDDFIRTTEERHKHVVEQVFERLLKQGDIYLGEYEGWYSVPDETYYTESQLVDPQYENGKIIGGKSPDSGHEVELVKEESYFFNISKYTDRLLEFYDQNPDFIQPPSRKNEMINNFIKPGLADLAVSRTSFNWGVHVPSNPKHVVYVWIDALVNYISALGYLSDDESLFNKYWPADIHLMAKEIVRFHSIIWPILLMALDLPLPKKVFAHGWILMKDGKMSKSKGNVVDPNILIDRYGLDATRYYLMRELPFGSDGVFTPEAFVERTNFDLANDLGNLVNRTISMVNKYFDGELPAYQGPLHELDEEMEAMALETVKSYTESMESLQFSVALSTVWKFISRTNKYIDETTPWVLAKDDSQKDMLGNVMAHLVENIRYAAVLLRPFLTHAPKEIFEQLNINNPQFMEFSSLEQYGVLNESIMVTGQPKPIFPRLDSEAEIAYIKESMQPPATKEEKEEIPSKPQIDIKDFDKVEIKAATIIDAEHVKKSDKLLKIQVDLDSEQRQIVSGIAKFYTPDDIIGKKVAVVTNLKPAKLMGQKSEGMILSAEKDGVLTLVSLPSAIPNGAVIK
Reply numerically in nM, unit not repeated.

Solved cases (3 shown):
[[record]]
smiles_representation = "Fc1ccc2nc(NCCCN[C@@H]3CCNc4c(Cl)cc(Cl)cc43)[nH]c2n1"
assayed_target = "MetRS (S. aureus) (Staphylococcus aureus, UniProt Q5HII6)"
endpoint_label = "IC50"
assay_result = 28

[[record]]
smiles_representation = "Fc1ccc2[nH]c(N3CCC[C@H](NCc4cc(Cl)cc(Cl)c4)C3)nc2n1"
assayed_target = "MetRS (S. aureus) (Staphylococcus aureus, UniProt Q5HII6)"
endpoint_label = "IC50"
assay_result = 303

[[record]]
smiles_representation = "CCC(=O)N(CCN(C)c1nc2nc(Cl)ccc2[nH]1)Cc1cc(Cl)cc(Cl)c1"
assayed_target = "MetRS (S. aureus) (Staphylococcus aureus, UniProt Q5HII6)"
endpoint_label = "IC50"
assay_result = 104


Record Fc1ccc2nc(NCCCNCc3cc(Cl)cc(Cl)c3)[nH]c2n1 / MetRS (S. aureus) (Staphylococcus aureus, UniProt Q5HII6), IC50 recorded as 37

Record CC(=O)N(CCCc1nc2ccc(Cl)nc2[nH]1)Cc1cc(Cl)cc(Cl)c1 / MetRS (S. aureus) (Staphylococcus aureus, UniProt Q5HII6), IC50 recorded as 445

Record Clc1ccc2[nH]c(N3CCC[C@H](NCc4cc(Br)cc(Br)c4)C3)nc2n1 / MetRS (S. aureus) (Staphylococcus aureus, UniProt Q5HII6), IC50 recorded as 155

Record CCOc1c(Br)cc(Br)cc1CN[C@H]1CCCN(c2nc3nc(Cl)ccc3[nH]2)C1 / MetRS (S. aureus) (Staphylococcus aureus, UniProt Q5HII6), IC50 recorded as 22

Record CN(CCN(Cc1cc(Cl)cc(Cl)c1)C(N)=O)c1nc2ccc(Cl)nc2[nH]1 / MetRS (S. aureus) (Staphylococcus aureus, UniProt Q5HII6), IC50 recorded as 140

* * *

Biological target: MetRS (S. aureus) (Staphylococcus aureus, UniProt Q5HII6)
pIC50: −log10 of the molar value.
Parameter threshold = 7. Response is t when pIC50 meets or exceeds it, else f.

Examples with answers:
[[record]]
molecule = "CC(=O)N(CCN(C)c1nc2nc(F)ccc2[nH]1)Cc1cc(Cl)cc(Cl)c1 [Compound 1914]"
label_class = "f"

[[record]]
molecule = "CN(CCNCc1cc(Cl)cc(Cl)c1)c1nc2nc(F)ccc2[nH]1 [Compound 1913]"
label_class = "f"

[[record]]
molecule = "COc1ccc(Oc2cc(NCc3nc4ccc(F)nc4[nH]3)nc(Cl)n2)c(Cl)c1 [Compound 1796]"
label_class = "t"

[[record]]
molecule = "Clc1cc(Cl)cc(NC[C@@H]2CCCN(c3nc4nc(Cl)ccc4[nH]3)C2)c1 [Compound 1923]"
label_class = "f"


Switching to the query record.
Would you say Clc1cc(Cl)cc(CNC2CCCN(c3nc4nc(Cl)ccc4[nH]3)C2)c1 (centres unmarked) [Compound 1811] shows pIC50 at minimum 7?
f
